system: BMPR1B; conditions: concentration: 1 μM, replicates: in singlicate; n = 1;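 note: KINOMEscan kinase panel screen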
# if measured %Inh < 6%: Y  # else: N

Answered examples (5):
>>> class_assignment("Cc1nn2c(=O)cc(N3CCO[C@H](C)C3)nc2n1Cc1cccc(Cl)c1Cl")
"Y"
>>> class_assignment("CCNc1nccc(-c2c(-c3ccc(F)cc3)ncn2C2CCN(C)CC2)n1")
"Y"
>>> class_assignment("CCNC(=O)/C=C/c1n[nH]c2cc(Sc3ccccc3C(=O)NC)ccc12")
"N"
>>> class_assignment("CN(C)CCOc1ccc(-c2cc(-c3ccc(Cl)c(O)c3)c(-c3ccncc3)[nH]2)cc1.Cl.Cl")
"N"
>>> class_assignment("CSc1ccc(NC2=C(c3ccc(Cl)cc3)C(=O)NC2=O)cc1")
"Y"

Is 6% strictly greater than the compound's reported %Inh? compound: O=C(Nc1n[nH]c2cc(-c3cccs3)ccc12)C1CC1
N

Is 6% strictly greater than the compound's reported %Inh? compound: Cn1cc(-c2ccc3c(c2)CCN3C(=O)Cc2cc(F)cc(C(F)(F)F)c2)c2c(N)ncnc21
Y

Is 6% strictly greater than the compound's reported %Inh? compound: Cc1ccc(O)cc1Nc1ccnc2cc(-c3ccc(CN4CCCCC4)o3)ccc12
N

Is 6% strictly greater than the compound's reported %Inh? compound: COc1cc(Nc2nccc(N3CCC(NC(=O)Nc4ccc5c(c4)OCO5)C3)n2)cc(OC)c1OC (centres unmarked)
Y

Is 6% strictly greater than the compound's reported %Inh? compound: Cn1cc(-c2ccc3c(c2)CCN3C(=O)Cc2cc(F)cc(F)c2F)c2c(N)ncnc21
Y

Is 6% strictly greater than the compound's reported %Inh? compound: Cc1ccc(NC(=O)c2cccc(N3CCCCC3)c2)cc1-c1ccc(C(=O)NCC2CC2)cc1
Y

Is 6% strictly greater than the compound's reported %Inh? compound: Nc1ncc(-c2ccc3nccc(-c4ccncc4)c3c2)cc1S(=O)(=O)N1CCCCC1
Y

meta.source: paper PMC5540273
